test system: SK-MEL-5 melanoma; experiment: NCI tumour cell line growth inhibition, 48 h
Exercise: for every item that follows, state its recorded TGI.
Please reply with the bare figure in µM and do not write the unit itself.

Any idea what TGI came out for `O=C(NNc1nc(-c2ccccc2)cs1)Nc1ccccc1` on SK-MEL-5 melanoma? 38.2

Follow-up entry: `COc1ccc(/C=C2\OC(=O)C(Cl)=C2c2ccc(OC)c(Cl)c2)cc1` 48.6

Follow-up entry: `O=c1[nH]c2ccc(C(F)(F)F)cc2nc1C(F)(F)F` 35.5

###

tested on: UO-31 renal; test: NCI tumour cell line growth inhibition, 48 h
ENDPOINT NAME: TGI (µM)
Please reply with the bare figure in µM and do not write the unit itself.

Any idea what TGI came out for `CCOc1ccccc1N=Cc1c2ccccc2cc2ccccc12` on UO-31 renal? 43.6

Follow-up entry: `Cn1cc(-c2csc(-c3cn(C(=O)OC(C)(C)C)c4ccccc34)n2)c2cccnc21` 21.3

Follow-up entry: `O=c1[nH]c2ccc(C(F)(F)F)cc2nc1C(F)(F)F` 75.6

Follow-up entry: `CC(=O)/C(=C/N1CCN(C(=O)c2ccco2)C1=S)C(=O)c1ccccc1` 18.1

Follow-up entry: COc1ccc(F)cc1-c1ccnc2[nH]c(C3=CCN(C4CCC(CC(=O)O)CC4)CC3)cc12 (configuration not stated) 0.625

###

test system: MDA-MB-435
Your response should consist of one outcome taken from label 1 = active, label 0 = inactive

Per the records of this test, what outcome belongs to `COc1ccc(S(=O)(=O)Nc2cc(Sc3cccc4cccnc34)c(O)c3ccccc23)cc1` ? label 0

Follow-up entry: `CCCCCCCCc1cc(O)ccc1O` label 0

Follow-up entry: `CN(C)CCOc1ccc2c(c1)C(=O)/C(=C\c1ncc([N+](=O)[O-])n1C)C2` label 1

Follow-up entry: `CC[C@@H](C(=O)[C@@H](C)[C@@H](O)[C@H](C)[C@@H]1O[C@@H]([C@@H](CC)C(=O)O)CC[C@@H]1C)[C@H]1O[C@]2(C=C[C@@H](O)[C@]3(CC[C@@](C)([C@H]4CC[C@](O)(CC)[C@H](C)O4)O3)O2)[C@H](C)C[C@@H]1C` label 0

Follow-up entry: `CS(=O)(=O)CCNCc1ccoc1-c1ccc2ncnc(Nc3ccc(OCc4ccccc4)cc3)c2c1` label 0

Follow-up entry: `CC(=O)/C(=C/N1CCN(C(=O)c2ccco2)C1=S)C(=O)c1ccccc1` label 0

Follow-up entry: `N#Cc1cc2c(cc1Cl)SC(=Nc1ccccc1)N(S(=O)(=O)c1ccc(Br)s1)S2(=O)=O` label 0

Follow-up entry: `C[C@@H]1Cc2c(ccc3[nH]ncc23)[C@@H](c2ccc(NC3CN(CCCF)C3)cn2)N1CC(F)(F)F` label 0

###

tested on: SK-OV-3 ovarian; test: NCI tumour cell line growth inhibition, 48 h
ENDPOINT NAME: TGI (µM)
Please reply with the bare figure in µM and do not write the unit itself.

# get_value(readout='TGI', item= `CC(=O)c1c(O)cc(O)c(-c2c(C)cc(O)c3c2C(=O)c2cccc(O)c2C3=O)c1O` ) 27.4

Follow-up entry: CC(C)(C)CC(C)(C)NCC(O)COc1ccc(C(C)(C)c2ccc(OCC(O)CNC(C)(C)CC(C)(C)C)cc2)cc1 (stereo unspecified) 3.24

Follow-up entry: `O=S(=O)(Nc1ccc(Cl)c(Cl)c1)c1ccc(-c2cnc(C3CC3)o2)cc1` 39.7

###

system: SK-OV-3 ovarian; test: NCI tumour cell line growth inhibition, 48 h; in the data active = GI50 below about 0.43 µM; inactive = the rest
Your response should consist of one outcome taken from active, inactive

Per the records of this test, what outcome belongs to `O=S(=O)(Nc1ccc(Cl)c(Cl)c1)c1ccc(-c2cnc(C3CC3)o2)cc1` ? inactive

Follow-up entry: `COC(=O)[C@@H](C)C[C@H](Cc1ccccc1)NC(=O)c1csc([C@@H](C[C@H](C(C)C)N(C)C(=O)[C@@H](NC(=O)[C@H]2CCCCN2C)C(C(F)(F)F)C(F)(F)F)OC(C)=O)n1` active

Follow-up entry: `CC(=O)[O][Hg][c]1s[c]([Hg][O]C(C)=O)[c]([Hg][O]C(C)=O)[c]1[Hg][O]C(C)=O` inactive

Follow-up entry: `N#Cc1cc2c(cc1Cl)SC(=Nc1ccccc1)N(S(=O)(=O)c1ccc(Br)s1)S2(=O)=O` inactive

Follow-up entry: `COc1ccc(S(=O)(=O)Nc2cc(Sc3cccc4cccnc34)c(O)c3ccccc23)cc1` inactive

Follow-up entry: COc1ccc(C2C3=C(COC3=O)N(CCO)c3cc4c(cc32)CCC4)cc1 (centres undefined) inactive

Follow-up entry: `CCSc1nc(N)c2cnn(CC)c2n1` inactive

Follow-up entry: `Cn1cccc1-c1cc(-c2ccccc2)nc(N)c1C#N` inactive

Follow-up entry: `N=C1C=C(N)C(=O)c2ccccc21` inactive

###

Exercise: for every item that follows, state its recorded TGI.
system: SK-MEL-2 melanoma; experiment: NCI tumour cell line growth inhibition, 48 h
Please reply with the bare figure in µM and do not write the unit itself.

# get_value(readout='TGI', item= CCC(C)N1CN(c2ccccc2)C2(CCN(CCCC3(c4ccc(F)cc4)OCCO3)CC2)C1=O (stereo not drawn) ) 28.7

Follow-up entry: `C[C@@H](C[C@H](CCO)c1ccccc1)c1ccc2ccccc2c1` 3.02

Follow-up entry: `Cn1cc(-c2csc(-c3cn(C(=O)OC(C)(C)C)c4ccccc34)n2)c2cccnc21` 36.3

Follow-up entry: `C1CC[N-]CC1.CC(=N\O)/C(C)=N/O.CC(=N\O)/C(C)=N/O.C[CH-]C(C)O.[Co+2]` 34.9

###

system: OVCAR-4 ovarian; assay: NCI tumour cell line growth inhibition, 48 h; in the data active means GI50 below about 0.43 µM; inactive means the rest
Your response should consist of one outcome taken from active, inactive

Per the records of this test, what outcome belongs to `O=S(=O)(Nc1ccc(Cl)c(Cl)c1)c1ccc(-c2cnc(C3CC3)o2)cc1` ? inactive

Follow-up entry: `N=C1C=C(N)C(=O)c2ccccc21` active

Follow-up entry: `Cc1nc2sc(C(=O)Nc3ccccc3)c(N)c2cc1C(=O)c1ccccc1` inactive

Follow-up entry: `CC(=O)/C(=C/N1CCN(C(=O)c2ccco2)C1=S)C(=O)c1ccccc1` inactive

Follow-up entry: `CCOC(=O)N(O)c1ccc(/C=C/c2ccccc2)cc1` inactive

Follow-up entry: `CSc1nc2ccc(C)cc2cc1/C=C1/C=C(c2ccccc2)NC1=O` active

###

test system: T-47D breast; assay: NCI tumour cell line growth inhibition, 48 h; in the data active means GI50 below about 0.43 µM; inactive means the rest
Your response should consist of one outcome taken from class 1 = active, class 0 = inactive

Per the records of this test, what outcome belongs to `COc1ccc(S(=O)(=O)Nc2cc(Sc3cccc4cccnc34)c(O)c3ccccc23)cc1` ? class 0

Follow-up entry: `C[C@@H](C[C@H](CCO)c1ccccc1)c1ccc2ccccc2c1` class 0

Follow-up entry: `CCSc1nc(N)c2cnn(CC)c2n1` class 0

Follow-up entry: COc1ccc(F)cc1-c1ccnc2[nH]c(C3=CCN(C4CCC(CC(=O)O)CC4)CC3)cc12 (stereo not given) class 1

Follow-up entry: `O=C(/C=C/c1ccc(Cl)cc1Cl)c1ccc(Cl)cc1Cl` class 0

Follow-up entry: `Cc1cn2cc(-c3ccc4c(c3)CC(=O)N4)nc2s1` class 0

Follow-up entry: `N=C1C=C(N)C(=O)c2ccccc21` class 1

Follow-up entry: CC1=C(SCCC(=O)OC(C[Se]C2=C(C)C(=O)c3ccccc3C2=O)C(=O)NC(C)(C)C)C(=O)c2ccccc2C1=O (stereo not given) class 0

Follow-up entry: `CNC(=O)c1cc(-c2ccc(F)cc2)cc(-c2ccc(S(=O)(=O)N3CCCC3)cc2)c1N` class 0

Follow-up entry: `N#Cc1cc2c(cc1Cl)SC(=Nc1ccccc1)N(S(=O)(=O)c1ccc(Br)s1)S2(=O)=O` class 0

###

tested on: SK-MEL-2 melanoma; assay: NCI tumour cell line growth inhibition, 48 h; in the data active = GI50 below about 0.43 µM; inactive = the rest
Your response should consist of one outcome taken from active, inactive

Per the records of this test, what outcome belongs to `N#Cc1cc2c(cc1Cl)SC(=Nc1ccccc1)N(S(=O)(=O)c1ccc(Br)s1)S2(=O)=O` ? inactive

Follow-up entry: `CS(=O)(=O)CCNCc1ccoc1-c1ccc2ncnc(Nc3ccc(OCc4ccccc4)cc3)c2c1` inactive

Follow-up entry: `O=S(=O)(Nc1ccc(Cl)c(Cl)c1)c1ccc(-c2cnc(C3CC3)o2)cc1` inactive

Follow-up entry: `CC[C@@H](C(=O)[C@@H](C)[C@@H](O)[C@H](C)[C@@H]1O[C@@H]([C@@H](CC)C(=O)O)CC[C@@H]1C)[C@H]1O[C@]2(C=C[C@@H](O)[C@]3(CC[C@@](C)([C@H]4CC[C@](O)(CC)[C@H](C)O4)O3)O2)[C@H](C)C[C@@H]1C` active

###

test system: KM20L2 colon; assay: NCI tumour cell line growth inhibition, 48 h
Exercise: for every item that follows, state its recorded TGI.

Any idea what TGI came out for COC(=O)C(C)Oc1ccc(O)cc1 (configuration not stated) on KM20L2 colon? > 100 µM

Follow-up entry: `CN1C/C(=C\c2ccc(C(=O)O)cc2)C(=O)/C(=C/c2ccc(C(=O)O)cc2)C1` > 100 µM

Follow-up entry: CCN1CCC(O)(/C=C/c2ccccc2)C(C(=O)/C=C/c2ccccc2)C1 (configuration not stated) 7.22 µM

Follow-up entry: `Cc1ccc([N+]2=NC(c3ccccc3)=NN(c3ccccc3)C2)cc1` > 100 µM

Follow-up entry: `CSc1nc(-c2ccccc2)nc(=[N+]2CCOCC2)s1` > 100 µM

Follow-up entry: COc1cc([C@@H]2c3cc4c(cc3[C@@H](NCc3cccc(F)c3)C3COC(=O)[C@@H]32)OCO4)cc(OC)c1O (some centres not stated) 21.2 µM

Follow-up entry: `Cc1ccc(C)c(NC(=O)C(=O)Nn2c(=S)[nH]c3ccccc3c2=O)c1` > 100 µM

Follow-up entry: `CN(C)C(=S)/N=c1\ss/c(=N\S(=O)(=O)c2ccccc2)n1C` > 100 µM

Follow-up entry: C=CCO[C@H]1CC[C@@]2(C)C(CC[C@]3(C)C2CC=C2[C@@H]4[C@@H](C)C(C)CC[C@]4(C(=O)O)CCC23C)C1(C)C (some centres not stated) 33.2 µM

Follow-up entry: CC/C(C)=C1\CCC(CN(C)C)C1=O (configuration not stated) 47.5 µM

Follow-up entry: CC1=CC(=O)N2C(OC[C@@H]2c2ccccc2)O1 (some centres not stated) > 100 µM

Follow-up entry: `N#CC(C#N)C(c1ccccc1)c1ccccc1` > 100 µM
